Parameter: Y586通道PE荧光值. Scope: all listed entries.
# assaySystem: T1, OX40 on OX40-overexpressing cells (OX40过表达细胞表面OX40) (UniProt P43489 29-277, limits assumed)
# T1 construct: whole, on cells; The cell line and the construct of the overexpressing cells are not described; also called CD134; TNFRSF4
# T1 sequence (looked up): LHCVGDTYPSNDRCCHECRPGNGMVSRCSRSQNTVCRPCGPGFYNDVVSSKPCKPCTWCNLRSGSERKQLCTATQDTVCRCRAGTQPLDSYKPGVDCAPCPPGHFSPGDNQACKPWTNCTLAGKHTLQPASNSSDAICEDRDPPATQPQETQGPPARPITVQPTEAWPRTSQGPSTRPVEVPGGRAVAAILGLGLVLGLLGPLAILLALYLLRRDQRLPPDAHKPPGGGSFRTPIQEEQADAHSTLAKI
# test: flow cytometry, hybridoma supernatant on OX40-overexpressing cells, goat anti-mouse IgG-PE
# respond with the number and nothing more

Prompt: State its Y586通道PE荧光值: 21F3-11 (antibody, V domains shown) VH: QVQLQESGPGLVKPSGTLSLTCAVSGGSISSSNWWSWVRQPPGKGLEWIGEIYHGGSTNYNPSLKSRITISVDKSKNQFSLKLSSVTAADTAMYYCATLPGYSSGWFDSWGQGTLVTVSS VL: EIVLMQSPGTLSLSPGERATLSCRASQSVSSSYLAWYQQKPGQAPSLLIYGASNRASGIPDRFSGSGSGTDFTLTITRLEPEDFAVYYCQQYGSSPLTFGGGTRVEIKR
Completion: 171000

Prompt: Report Y586通道PE荧光值 for 24E10-4 (antibody, V domains shown) VH: QVQMQESGPGLVKPSGTLSLTCAVSGGSISSSKWWSWVRQPPGKGLEWIGEIYHSGSTNYNPSLKSRVTISIDKSKNQFSLRLTSVTAADTAVYYCARGDVLLWFGGQGTLVTVSS VL: EIVLTQSPGTLSLSPGERATLSCWASQSVSSTYLAWYQQKPGQAPRLLIYGASIRATGIPDRFSGSGSGTDFTLTISSLEPEDFAVYYCQQYGSSPITFGQGTRLEIKR
Completion: 344000

***
Prompt: Report Y586通道PE荧光值, nothing else, for this binder: 55H6-6 (antibody, V domains shown) VH: QVQLVQSGAEVKKPGASVKVSCKASGYTFTSYGISWVRQAPGQGLEWMGWISAYNGHTNYAQKLQGRVTMTTDTSTNTAYMELWSLRSDDTAVYYCTSDYGDYWGQGTLVTVSS VL: DVVVTQSPLSLPVTLGQPASISCRSSQSLVYSDGNTNLYWFQQRPGQSPRRLIYQVSNRDSGVPDRFSGSGSGTDFTLKISRVEAEDVGVYYCMQGTHWPPALTFGGGTEVEIKR
Completion: 479000
